target: Streptokinase A (Streptococcus pyogenes serotype M1, UniProt P10520); assay: viability-normalized secreted streptokinase activity reduction – plasminogen activation absorbance, OD405, dose response (AID 1914); type: functional, Streptococcus pyogenes M1 GAS;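 also: secreted streptokinase activity via plasminogen activation per viability signal from cell pellet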
Sequence (P10520 whole entry): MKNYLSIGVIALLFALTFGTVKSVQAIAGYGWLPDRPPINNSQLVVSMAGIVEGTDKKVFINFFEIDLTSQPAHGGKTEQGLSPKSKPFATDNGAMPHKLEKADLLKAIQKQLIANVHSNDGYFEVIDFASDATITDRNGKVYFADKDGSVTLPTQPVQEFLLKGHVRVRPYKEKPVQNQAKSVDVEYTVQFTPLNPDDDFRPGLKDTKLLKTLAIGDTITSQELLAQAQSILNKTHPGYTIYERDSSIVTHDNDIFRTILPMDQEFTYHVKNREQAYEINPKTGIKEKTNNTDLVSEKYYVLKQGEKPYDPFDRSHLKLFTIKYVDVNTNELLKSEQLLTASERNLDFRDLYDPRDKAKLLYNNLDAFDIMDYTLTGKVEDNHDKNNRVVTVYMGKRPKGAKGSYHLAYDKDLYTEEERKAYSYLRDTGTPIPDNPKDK
Activity calls are given as the source filed them.
Each entry below lists one item and its recorded EC50 value.

| compound | EC50 |
| --- | --- |
| Cc1nn(-c2ccccc2)c(Cl)c1/C=C1\SC(=S)N(CCCCCC(=O)O)C1=O | 40.7 µM (inconclusive) |
| O=C(NNC(=S)NC(=O)c1ccccc1)c1ccc([N+](=O)[O-])cc1 | > 150 µM (not active) |
| CN(C)/C=C1\SC(=S)N(c2ccc(Br)cc2)C1=O | 17.2 µM (active) |
| CC(C)c1nc(N2CCCC2)c(C#N)c2c1CCCC2 | > 150 µM (not active) |
| O=[N+]([O-])c1ccccc1NCCNc1ncc(C(F)(F)F)cc1Cl | 5.57 µM (active) |
| COc1ccc(C(=O)NC2CCCCCC2)cc1S(=O)(=O)N1CCOCC1 | > 150 µM (not active) |
| c1ccc(CCNc2nc(-c3ccccn3)cs2)cc1 | > 150 µM (not active) |
| Cc1cc(NC(c2ccc(Cl)cc2)c2ccc3cccnc3c2O)no1 (stereo unspecified) | > 150 µM (not active) |
| O=C(O)c1ccc(N/N=C/c2ccc(OC(=O)c3cccc(Cl)c3)cc2)cc1 | > 150 µM (not active) |
| O=[N+]([O-])/C=C/c1ccc2c(ccn2Cc2ccccc2)c1 | 6.15 µM (active) |
| CCC(C)c1ccc(C(C)N=C(S)NC2CCCCC2)cc1 (stereo unspecified) | 146 µM (active) |

* * *

biological target: Sentrin-specific protease 7 (Homo sapiens, UniProt Q9BQF6); format: functional;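 also: Luminescence-based dose-response confirmation of ultra-high-throughput screening hits, measuring inhibition of SENP7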
Sequence (Q9BQF6 whole entry): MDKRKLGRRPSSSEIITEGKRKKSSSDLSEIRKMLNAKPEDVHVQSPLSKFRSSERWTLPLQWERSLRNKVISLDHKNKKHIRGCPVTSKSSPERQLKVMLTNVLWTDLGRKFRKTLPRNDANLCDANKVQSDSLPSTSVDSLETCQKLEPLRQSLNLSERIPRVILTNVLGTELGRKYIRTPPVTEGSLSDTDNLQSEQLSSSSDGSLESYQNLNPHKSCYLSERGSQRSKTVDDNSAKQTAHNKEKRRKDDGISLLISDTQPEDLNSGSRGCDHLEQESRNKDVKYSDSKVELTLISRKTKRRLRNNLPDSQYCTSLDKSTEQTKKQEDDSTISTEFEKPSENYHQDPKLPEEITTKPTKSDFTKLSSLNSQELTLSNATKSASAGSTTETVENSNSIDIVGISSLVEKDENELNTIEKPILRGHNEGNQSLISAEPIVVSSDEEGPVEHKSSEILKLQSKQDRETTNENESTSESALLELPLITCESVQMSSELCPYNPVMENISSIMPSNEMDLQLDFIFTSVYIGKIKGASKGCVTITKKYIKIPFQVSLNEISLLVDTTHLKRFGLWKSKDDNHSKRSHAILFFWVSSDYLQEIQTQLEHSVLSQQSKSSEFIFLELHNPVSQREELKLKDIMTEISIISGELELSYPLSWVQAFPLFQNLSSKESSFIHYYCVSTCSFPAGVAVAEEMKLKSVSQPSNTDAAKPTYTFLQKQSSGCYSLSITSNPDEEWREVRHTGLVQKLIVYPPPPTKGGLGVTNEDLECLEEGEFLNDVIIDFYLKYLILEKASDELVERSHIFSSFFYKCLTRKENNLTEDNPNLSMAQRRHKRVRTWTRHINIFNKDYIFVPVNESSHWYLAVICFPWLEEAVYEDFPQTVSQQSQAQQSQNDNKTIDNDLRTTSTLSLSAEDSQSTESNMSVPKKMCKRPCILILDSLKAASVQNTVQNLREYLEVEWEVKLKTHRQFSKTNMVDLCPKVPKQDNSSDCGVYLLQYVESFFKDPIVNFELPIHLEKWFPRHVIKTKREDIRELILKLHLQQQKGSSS
Calls of active or inactive are those of the source.
outcomeMeasure: IC50

| compoundStructureString | measValue |
| --- | --- |
| CC(C)=CC(=O)Nc1ccc(OCc2ccccc2)cc1 | 8.82 µM (active) |
| COc1ccc(COC(=O)c2c(C)nn(-c3ccccc3)c2Cl)cc1 | 19.4 µM (active) |
| OCC[n+]1c2ccccc2nc2ccc(N3CCOCC3)cc21 | 28 µM (active) |
| COc1ccc(-c2cc(O)cc(O)c2)cc1 | 12.3 µM (active) |

* * *

assay: viability of uninfected HEp-2 cells – cell-based, HTS, cytotoxicity control for RSV inhibitor project, dose response (AID 2410); format: functional; settings: human respiratory syncytial virus
The source made the active and inactive calls.

| compound | CC50 |
| --- | --- |
| O=c1c(-c2ccccc2)coc2cc(O)ccc12 [7-HYDROXY ISOFLAVONE] | 46.3 µM (active) |
| COc1ccc(C2CC(c3ccc(Br)cc3)=NN2C(=O)CSC2=NCCS2)cc1 (stereo not given) | 24.1 µM (active) |
| O=C1NC(=O)/C(=C/c2c[nH]c3ccc(Br)cc23)N1 | 24.8 µM (active) |
| COc1cccc(NC(=O)CSc2nc3ccccc3nc2N2CCCC2)c1 | 17.2 µM (active) |
| CCOC(=O)c1ccc(COC(=O)c2ccc3c(c2)-c2ccccc2C3=O)cc1 | 20.8 µM (active) |

* * *

molecular target: DNA dC->dU-editing enzyme APOBEC-3G (Homo sapiens); assay type: functional;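 also: Dose-response counterscreen measuring inhibition of APOBEC3G DNA deaminase activity, run while confirming APOBEC3A inhibitors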
Sequence (Q9HC16 whole entry): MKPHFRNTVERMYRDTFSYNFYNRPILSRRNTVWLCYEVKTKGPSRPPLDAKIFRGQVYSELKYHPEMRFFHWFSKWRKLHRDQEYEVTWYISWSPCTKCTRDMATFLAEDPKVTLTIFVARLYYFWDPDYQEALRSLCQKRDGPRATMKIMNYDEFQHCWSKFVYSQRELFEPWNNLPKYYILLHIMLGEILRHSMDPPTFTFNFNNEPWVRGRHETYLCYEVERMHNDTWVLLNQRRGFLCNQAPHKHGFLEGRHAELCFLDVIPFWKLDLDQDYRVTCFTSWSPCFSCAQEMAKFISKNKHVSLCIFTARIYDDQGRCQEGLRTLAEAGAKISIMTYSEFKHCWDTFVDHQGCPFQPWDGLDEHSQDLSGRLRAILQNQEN
Structures can show the parent of a compound that is named as a salt. The source made the active and inactive calls.

| compound | system | IC50 |
| --- | --- | --- |
| COC(=O)c1[nH]c2ccc(Cl)cc2c1NC(=O)CN1CCc2cc(OC)c(OC)cc2C1 | DNA dC->dU-editing enzyme APOBEC-3G (Homo sapiens) | 7.77 µM (active) |
| COC(=O)C1=C(C)N(Cc2ccccc2)C(NCC(C)C)=N[C@H]1c1cccc(C(F)(F)F)c1 | DNA dC->dU-editing enzyme APOBEC-3G (Homo sapiens) | 4.22 µM (active) |
| Nc1cc(N)nc(SCC(=O)Nc2ccc(Br)cc2Cl)n1 | DNA dC->dU-editing enzyme APOBEC-3G (Homo sapiens) | 6.06 µM (active) |
| C=CCNC1=N[C@@H](c2cccc(C(F)(F)F)c2)C(C(=O)OC)=C(C)N1CC | DNA dC->dU-editing enzyme APOBEC-3G (Homo sapiens) | 3.81 µM (active) |
| COc1ccc(CN2CCNCC2)c(OC)c1OC [TRIMETAZIDINE DIHYDROCHLORIDE] | DNA dC->dU-editing enzyme APOBEC-3G (Homo sapiens) | 7.19 µM (active) |
| CCCCCCCC[n+]1c(C)n(-c2ccccc2)c2ccc(NC(C)=O)cc21 | DNA dC->dU-editing enzyme APOBEC-3G (Homo sapiens) | 2.66 µM (active) |

All figures here come from ChEMBL document CHEMBL1201862.
